methodSummary: qHTS Screen for Compounds that Selectively Target Cancer Cells with p53 Mutations: Cytotoxicity of p53ts Cells at the Nonpermissive Temperature; note: nearly all actives have a fitted effect of over 55% in size
conditions: H1299-p53A138V viability at 39C, ATP luminescence, 24 h; series mostly up to 46.1 µM
Out of some 130,000 compounds screened, about 1,900 (1.5%) were called active. Not shown: some 5% with an inconclusive outcome. Calls come from the whole dose curve; as a rule, active = well fitted cell-killing curve with a large enough effect; inconclusive = small, poorly fitted or top-dose-only effect; inactive = no such curve, though single readings can be large or run the other way. Many of the other results were omitted from the sample, so actives are more common in it than they were.
Output constraint: value belongs to YES = active, NO = inactive

- smilesText: "Cn1c(=O)c2sccc2n2c(CCC(=O)NCc3ccccc3Cl)nnc12"
  label: "NO"
- smilesText: "COc1ccccc1N1CCN(C(=O)CN(Cc2ccc(Cl)cc2)S(C)(=O)=O)CC1"
  label: "NO"
- smilesText: "c1ccc(Nc2n[nH]nc2-c2ccccc2)cc1"
  label: "NO"
- smilesText: "COc1ccc(-n2ncc3c(N4CCc5ccccc54)ncnc32)cc1"
  label: "NO"
- smilesText: "COc1ccccc1-n1nnnc1S(=O)(=O)Cc1ccc(Cl)cc1"
  label: "YES"

Lookup: Called result for `Cc1cc(C)c2c(n1)nn1c(N3CCOCC3)cc(C)nc21`
Found: NO

Lookup: Called result for `COc1ccc(N2CCN(C3=NS(=O)(=O)C(c4cccc(Br)c4)=C3C)CC2)cc1`
Found: NO

Lookup: Called result for `COc1ccc(S(=O)(=O)c2c(Nc3ccc(C)cc3)sc(C(=O)c3ccc(C)cc3)c2N)cc1`
Found: NO

Lookup: Called result for `Cc1ccc(C(=O)Nc2ccc(OCc3cc(=O)n4c5c(sc4n3)CCCC5)cc2)cc1`
Found: NO

Lookup: Called result for `COc1ccc(-n2ncc3c(N4CCCc5ccccc54)ncnc32)cc1`
Found: YES

The measurements presented in this section are drawn from PubChem BioAssay AID902.
